pIC50: −log10 of the molar value.
pIC50 values for Beta-secretase 1 (Homo sapiens, UniProt P56817) compiled from several publications are listed below.
pIC50 below 7 gives Condition not met; pIC50 at or above it gives Condition met.

Use these answered entries as a reference point.
• O=C(/C=C/c1ccccc1O)c1ccc(O)cc1 = Condition not met
• CC(=O)COc1cc2cc(c1)C(=O)N[C@H]([C@H](O)CNCc1cc(C(C)(C)C)ccn1)Cc1cccc(c1)CCCCO2 = Condition met
• COCc1cc2cc(c1)C(=O)N[C@H]([C@H](O)CNC(C)(C)c1cc(C(C)(C)C)ccn1)Cc1cccc(c1)OCCCCN2 = Condition met
• Cc1cc2cc(n1)OCCCCc1cc(cc(Cl)c1O)C[C@@H]([C@H](O)CNC(C)(C)c1cc(CC(C)(C)C)on1)NC2=O = Condition met
• CCCNc1cc(COC)cc(C(=O)N[C@@H](Cc2cccc(OC)c2)[C@H](O)CNC2(c3cccc(C(C)C)c3)CC2)c1 = Condition not met

Task: Determine whether this compound has pIC50 no lower than 7: NC1=N[C@](CF)(c2cc(Nc3nccc4nc(OCc5ncco5)cnc34)ccc2F)[C@@H]2C[C@]2(c2c[nH]nn2)S1
Output: Condition met

Task: Determine whether this compound has pIC50 no lower than 7: O=C(NCc1ccc2c(c1)OCO2)c1cnc2cc(S(=O)(=O)Nc3cccc(C(F)(F)F)c3)ccc2c1O
Output: Condition not met

Task: Determine whether this compound has pIC50 no lower than 7: COCc1cc2cc(c1)C(=O)N[C@H]([C@H](O)CN[C@H]1CC(C)(C)Oc3ccc(C(C)C)cc31)C[C@H](C)CCCCCCCN2
Output: Condition met

Task: Determine whether this compound has pIC50 no lower than 7: COCc1cc2cc(c1)C(=O)N[C@H]([C@H](O)CNCc1cccc(C(C)C)c1)C[C@H](C)CCOCCCCN2
Output: Condition not met

Task: Determine whether this compound has pIC50 no lower than 7: CCCNc1cc(COC)cc(C(=O)N[C@@H](Cc2cccc(OC)c2)[C@H](O)CNCc2cccc(C(C)C)c2)c1
Output: Condition not met

Task: Determine whether this compound has pIC50 no lower than 7: CC(C)c1cccc(CNC[C@@H](O)[C@@H]2Cc3cccc(c3)OCCCCCC(=O)N(C)[C@@H](C)C(=O)N2)c1
Output: Condition met

Task: Determine whether this compound has pIC50 no lower than 7: C/C1=C\[C@@H]([C@H](O)CNCc2cccc(C(C)C)c2)NC(=O)c2cc(Cl)nc(c2)NCCCCOCC1
Output: Condition not met

Task: Determine whether this compound has pIC50 no lower than 7: CCN1CCCCC[C@@H](C)C[C@@H]([C@H](O)CNCc2cccc(C(C)C)c2)NC(=O)c2cc(cc(-c3ncco3)c2)C1=O
Output: Condition met
